FYI, the data here is from PubChem BioAssay (Tox21).

- target: Nuclear receptor subfamily 1 group I member 2 (Homo sapiens)
- assay summary: Human pregnane X receptor (PXR) small molecule agonists, qHTS assay (AID 1346982); further: nearly all actives have a fitted effect of over 35% in size
- experimental context: PXR-Luc HepG2, CYP3A4 luciferase reporter, 24 h; series mostly up to 92.4 µM
Results filed as inconclusive are left out. The source made the active and inactive calls. The call rests on the fitted dose curve; in most records, active means well fitted activation curve with a large enough effect in the repeat runs; inconclusive means weak or mixed curves; inactive means no such curve, though single readings can be large or run the other way.
Answer with one of the outcomes given here: yes (1) (active), no (0) (inactive)

C=CC(=O)OCC1CC2CC1C1CCC(COC(=O)C=C)C21 (stereo not drawn)	yes (1)

Asked: Call for entry Cc1ccccc1N=C(N)Nc1ccccc1C :
Given back: no (0)

Asked: Call for entry NCCNCCO :
Given back: no (0)

Asked: Call for entry O=c1[nH]ncc2ccccc12 :
Given back: no (0)

Asked: Call for entry CCCCCCCCCCCCCCN(CCO)CCO :
Given back: yes (1)

====

- assay summary: qHTS RealTime-Glo MT Cell Viability Assay in HEK293 cells - 24 hour (AID 1224886); further: nearly all actives have a fitted effect of over 50% in size
- experimental context: RealTime-Glo luminescence; series mostly up to 76.8 µM
Records with an inconclusive call do not appear. Active and inactive are the calls of the source. Calls come from the whole dose curve; as a rule, active = well fitted cell-killing curve with a large enough effect in the repeat runs; inconclusive = weak or mixed curves, or effect the other way; inactive = flat fitted curve, though single readings scatter.
Answer with one of the outcomes given here: active, inactive

Reference set, count: 10
CCCC(C(=O)OCCN(CC)CC)(c1ccccc1)c1ccccc1	active
CC1=C(CC=O)C(C)(C)CCC1	inactive
CCOC(=O)OC(C)OC(=O)[C@@H]1N2C(=O)[C@@H](NC(=O)[C@H](N)c3ccccc3)[C@H]2SC1(C)C (some centres not stated)	inactive
CCC(OCCCOC)OC(C)=O (configuration not stated)	inactive
O=C1Cc2ccccc2N1c1c(Cl)cccc1Cl	active
CCc1ccccc1	inactive
NNC(=O)CP(=O)(c1ccccc1)c1ccccc1	inactive
O=C(CCCN1CC=C(n2c(=O)[nH]c3ccccc32)CC1)c1ccc(F)cc1	active
O=C1NCCN1CCO	inactive
COC(=O)CCS	inactive

Asked: Call for entry O=C(Cn1ccnc1[N+](=O)[O-])NCCO :
Given back: inactive

Asked: Call for entry c1ccc2c(c1)CCc1ccccc1N2 :
Given back: inactive

Asked: Call for entry O=C1NC(=O)c2cc([N+](=O)[O-])ccc21 :
Given back: inactive

Asked: Call for entry CCCCCC[C@@H](O)C/C=C\CCCCCCCC(=O)OCC(O)CO (some centres not stated) :
Given back: inactive

Asked: Call for entry CCOC(=O)/C=C/C(=O)OCC :
Given back: inactive

Asked: Call for entry CCCCCCCC/C=C\CCCCCCCCCCCC(=O)O :
Given back: inactive

Asked: Call for entry Cc1c(C)c2c(c(C)c1OC(=O)CCC(=O)OCCO)CC[C@@](C)(CCC[C@H](C)CCC[C@H](C)CCCC(C)C)O2 :
Given back: inactive

Asked: Call for entry CCCCCCCCOc1ccc(C(=O)O)cc1 :
Given back: inactive

Asked: Call for entry CCOc1ccccc1O[C@H](c1ccccc1)[C@H]1CNCCO1 :
Given back: inactive

Asked: Call for entry O=C(OC(=O)c1ccccc1)c1ccccc1 :
Given back: inactive

Asked: Call for entry CC(=O)Nc1ccc(C)cc1C :
Given back: inactive

Asked: Call for entry CC(CC1c2ccccc2CCc2ccccc21)CN(C)C (configuration not stated) :
Given back: inactive

Asked: Call for entry COc1cc(C(=O)NC2CCN(C)CC2)ccc1Nc1ncc2c(n1)N(C1CCCC1)CC(F)(F)C(=O)N2C :
Given back: active

Asked: Call for entry CCC(=O)C1CC(C(C)C)CC=C1C (configuration not stated) :
Given back: inactive

Asked: Call for entry O=C1CCCCCCCCCCOCCCCO1 :
Given back: inactive

Asked: Call for entry Cc1ccco1 :
Given back: inactive

Asked: Call for entry CCCCC(CC)CN (configuration not stated) :
Given back: inactive
